Data origin, for the record: paper PMC11005723

biological target: T1, RBBP7 (1‐ 425) (UniProt Q16576 1-425); assay: ITC; 25 °C, MicroCal PEAQ-ITC; protein in the cell titrated with 19 injections of peptide; settings: both partners purified
T1 construct: RBBP7 residues 1-425; source: Sf9 (baculovirus), purified (Ni-NTA, Resource Q, Superdex 75)
T1 sequence (Q16576 whole entry, the tested form may be a part): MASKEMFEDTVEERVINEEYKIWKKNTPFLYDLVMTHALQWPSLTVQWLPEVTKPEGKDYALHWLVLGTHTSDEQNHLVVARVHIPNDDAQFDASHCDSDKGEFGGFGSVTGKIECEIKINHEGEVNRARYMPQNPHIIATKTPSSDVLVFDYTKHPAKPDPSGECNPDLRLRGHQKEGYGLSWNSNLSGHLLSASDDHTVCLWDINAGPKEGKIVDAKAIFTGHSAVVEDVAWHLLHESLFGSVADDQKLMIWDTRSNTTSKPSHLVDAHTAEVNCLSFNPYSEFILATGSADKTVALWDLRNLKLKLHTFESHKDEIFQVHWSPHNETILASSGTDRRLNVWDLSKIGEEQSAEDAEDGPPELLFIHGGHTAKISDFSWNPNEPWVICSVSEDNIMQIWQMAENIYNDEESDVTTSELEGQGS
Non-standard residues stand in square brackets, D forms with d. No end group written: not given here. Arg(Me2a) = CN(C)C(=N)NCCC[C@H](N)C(=O)O
Readout: pKd
pKd (log units): -log10 of the concentration in mol/L.

Would you kindly share the measured pKd for A[Arg(Me2a)]TKQTARKSTGGKA-NH2 (Rink amide resin was used for all peptides, so the C-terminus is probably an amide; source: synthetic peptide (Fmoc solid-phase synthesis)) [native H3R2me2a peptide (H3_(1‐15) without diazirine and biotin)] ? 4.81
